- Target Or Test System: BSA (UniProt P02769)
- Sequence (P02769 25-607 limits assumed): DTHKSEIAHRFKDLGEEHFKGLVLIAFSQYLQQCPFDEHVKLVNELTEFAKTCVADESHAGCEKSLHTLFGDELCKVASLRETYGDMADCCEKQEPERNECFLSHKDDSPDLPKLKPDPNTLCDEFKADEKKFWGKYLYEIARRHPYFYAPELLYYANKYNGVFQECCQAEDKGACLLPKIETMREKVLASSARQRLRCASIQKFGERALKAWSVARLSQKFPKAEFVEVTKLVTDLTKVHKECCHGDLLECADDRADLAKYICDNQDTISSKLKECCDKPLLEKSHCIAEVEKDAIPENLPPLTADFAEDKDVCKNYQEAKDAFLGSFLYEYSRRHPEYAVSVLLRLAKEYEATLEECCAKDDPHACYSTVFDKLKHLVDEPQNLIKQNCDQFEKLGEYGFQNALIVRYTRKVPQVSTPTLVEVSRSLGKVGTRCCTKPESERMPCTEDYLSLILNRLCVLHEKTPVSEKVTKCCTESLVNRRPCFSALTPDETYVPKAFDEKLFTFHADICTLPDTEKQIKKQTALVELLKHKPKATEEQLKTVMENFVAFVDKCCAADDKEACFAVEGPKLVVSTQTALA
- Measurement Description: scFv ELISA
Entries and their OD450
# number only, unit OD450 dropped from output

Qu. Form field: reported OD450 of PcOxP_DB04_E12 (scFv, V domains shown, scFv in periplasmic extract) VH: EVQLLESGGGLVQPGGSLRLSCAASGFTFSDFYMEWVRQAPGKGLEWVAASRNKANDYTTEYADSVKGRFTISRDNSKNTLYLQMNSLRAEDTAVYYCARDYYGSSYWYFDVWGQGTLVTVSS VL: DIVMTQSPDSLAVSLGERATINCTASESLYSSKHKVHYLAWYQQKPGQPPKLLIYGASNRVIGVPDRFSGSGSGTDFTLTISSLQAEDVAVYYCAQFYIYPLTFGGGTKVEIK
Ans. 0.07

Qu. What about PcOxP_DB01_A03 (scFv, V domains shown, scFv in periplasmic extract) VH: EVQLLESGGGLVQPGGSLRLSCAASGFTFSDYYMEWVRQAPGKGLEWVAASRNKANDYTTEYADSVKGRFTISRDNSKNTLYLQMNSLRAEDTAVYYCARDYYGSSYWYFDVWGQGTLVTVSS VL: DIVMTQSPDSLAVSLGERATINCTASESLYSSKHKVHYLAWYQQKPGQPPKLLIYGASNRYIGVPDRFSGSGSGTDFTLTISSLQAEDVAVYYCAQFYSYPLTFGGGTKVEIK ?
Ans. 0.07

Qu. What about PcOxP_DB01_B06 (scFv, V domains shown, scFv in periplasmic extract) VH: EVQLLESGGGLVQPGGSLRLSCAASGFTFSSYYMEWVRQAPGKGLEWVAASRNKYNDYTTEYADSVKGRFTISRDNSKNTLYLQMNSLRAEDTAVYYCARDYYGSSTWYFDVWGQGTLVTVSS VL: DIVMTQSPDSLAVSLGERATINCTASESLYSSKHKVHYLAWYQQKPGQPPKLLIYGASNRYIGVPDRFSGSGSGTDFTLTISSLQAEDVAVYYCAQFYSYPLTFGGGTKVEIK ?
Ans. 0.08

Qu. What about PcOxP_DB04_G05 (scFv, V domains shown, scFv in periplasmic extract) VH: EVQLLESGGGLVQPGGSLRLSCAASGFTFSDFYMEWVRQAPGKGLEWVAASRNKANDYTTEYADSVKGRFTISRDNSKNTLYLQMNSLRAEDTAVYYCARDFYGSSYWYFDVWGQGTLVTVSS VL: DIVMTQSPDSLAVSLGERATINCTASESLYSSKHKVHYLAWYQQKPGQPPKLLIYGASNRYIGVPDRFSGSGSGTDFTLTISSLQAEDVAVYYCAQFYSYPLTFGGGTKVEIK ?
Ans. 0.07

Qu. What about PcOxP_DB01_B11 (scFv, V domains shown, scFv in periplasmic extract) VH: EVQLLESGGGLVQPGGSLRLSCAASGFTFEDFYMEWVRQAPGKGLEWVAASRNKANDYTTEYADSVKGRFTISRDNSKNTLYLQMNSLRAEDTAVYYCARDYFGSSYWYFDVWGQGTLVTVSS VL: DIQMTQSPSSLSASVGDRVTITCTASESLYSSKHKVHYLAWYQQKPGKAPKLLIYGASNRYHGVPSRFSGSGSGTDFTLTISSLQPEDFATYYCAQFYSYPLTFGGGTKVEIK ?
Ans. 0.09
